Would you kindly list normalized maximum binding nm shift for each of these binders?
# Tested Target: T1, Human VSIG4-L-Fc (human)
# T1 construct: also called hVSIG4-L-Fc; hVSIG4-L
# T1 sequence (chain, as listed by the source limits assumed): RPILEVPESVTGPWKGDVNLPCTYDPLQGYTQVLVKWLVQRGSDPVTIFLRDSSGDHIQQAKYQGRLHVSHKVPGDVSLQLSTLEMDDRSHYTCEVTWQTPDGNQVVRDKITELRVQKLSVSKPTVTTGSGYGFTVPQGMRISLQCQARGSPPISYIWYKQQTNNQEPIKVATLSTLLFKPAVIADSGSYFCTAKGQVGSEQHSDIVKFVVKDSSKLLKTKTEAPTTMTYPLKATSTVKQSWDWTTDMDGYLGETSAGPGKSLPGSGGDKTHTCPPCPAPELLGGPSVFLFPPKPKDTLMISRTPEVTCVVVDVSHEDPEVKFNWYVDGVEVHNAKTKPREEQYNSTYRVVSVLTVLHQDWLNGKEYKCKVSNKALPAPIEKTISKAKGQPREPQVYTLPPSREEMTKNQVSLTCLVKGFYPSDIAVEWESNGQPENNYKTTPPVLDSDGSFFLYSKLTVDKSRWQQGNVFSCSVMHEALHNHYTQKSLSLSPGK
# Measurement Protocol: BLI binning on hVSIG4-L-Fc, competitor 13H11 first;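 note: normalized to binding of second antibody without first competitor antibody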
Answers are plain numbers, in normalized.

Example binders with recorded normalized maximum binding nm shift:
15A06 mouse/human chimeric IgG4 (S228P) kappa (antibody, V domains shown) VH: QVQMKQSGPSLVRPSQTLSLTCSVTGDSITSGYWNWIRKFPGDKFEYLGYISYSGFTYYNPSLKSRVSITRDTSKNQYYLQLHSVTTEDTATYYCASSKYGSSLGFPYWGQGTLVTVSA VL: DVVMTQTPLSLPVSLGDQASISCRSSQSLVHSNGNTYLHWYLQKPGQSPKLLIYKVSNRFSGVPDRFSGSGSGTDFTLKISRVEAEDLGVYFCSQSTHVPFTFGSGTKLEIKR	0.53
16E03 mouse/human chimeric IgG4 (S228P) kappa (antibody, V domains shown) VH: QVQLQQSGAELARPGASVKMSCKASGYTFTSYTMHWIKQRPGQGLEWIGYINPSSGHTYYNQKFKDKATLTPDKSSSTAYMQLTSLTSEDSAVYYCARRIPTAYAMDYWGQGTSVTVSS VL: EIQMTQSHKFMSTSVGDRVSITCKASQDVGTAVAWYQQKPGQSPKLLIYWASTRHTGVPDRFTGSGSGTDFTLTISNVQSEDLADYFCQQYSSYPLTFGAGTKLELKR	0.76
16E10 mouse/human chimeric IgG4 (S228P) kappa (antibody, V domains shown) VH: QVQLQQSGAELVRPGTSVKISCKASGYTFTNYWLGWVKQRPGHGLEWIGDIYPGGGYTNYNEKFKGKATLTADTSSSTAYMQLSSLTSEDSAVYFCAKFYYYGSSYYFDSWGQGTTLTVSS VL: DIVLTQSPSSLSVSAGEKVTLSCKSSQSLLNSGNQENYLAWYQQKPGQPPKLLIYGASTRESGVPDRFTGSGSGTDFTLTISSVQAEDLAVYYCQNDHSYPLTFGAGTKLELKR	0.65
14D12 mouse/human chimeric IgG4 (S228P) kappa (antibody, V domains shown) VH: QIQLVQSGPELKKPGETVKISCKASGYTFTNYGMNWVKQTPGKGLKWMGLINTYTGEPTYADDFKGRFAFSLETSASTAYLQINNLKNEDMATYFCARERIYGYLHYFDYWGQGTTLTVSS VL: DVVMTQTPASLAVSLGQRATISCKASQSVDYDGDSYMNWYQQKPGQPPKLLIYAASNLESGIPARFSGSGSGTDFTLNIHPVEEEDAATYYCQQSNEDPRTFGGGTKLEIKR	0.69
15C03 mouse/human chimeric IgG4 (S228P) kappa (antibody, V domains shown) VH: EVKLLESGPGLVKPSQSLSLTCTVTGYSITSDYAWNWIRQFPGNKLEWMGYISYSGSTRYNPSLKSRISITRDTSNNQFFLQLNSVTTEDTATYYCARSGYAAMDYWGQGTSVTVSS VL: ENVLTQSPAIMSASPGEKVTMTCRASSSVSSSYLHWYQQKSGASPKLWIYSTSNLASGVPARFSGSGSGTSYSLTISSVEAEDAATYYCQQYSGYPLTFGSGTKLEIKR	0.74

Please supply normalized maximum binding nm shift for each of the following items, keeping them in order.
1. 12A12 mouse/human chimeric IgG4 (S228P) kappa (antibody, V domains shown) VH: QVQMKQSGAELAKPGASVKMSCKASGYTFTNYWMHWVKQRPGQGLEWIGYINPSTGYTDYNQNFKDRATLTADKSSSTAYMQLSSLTSEDSAVYYCIRGSDYYGRDYWGQGTTLTVSS VL: DIQMTQTTSSLSASLGDRVTISCRASQDISNYLNWYQQKPDGTLKLLIYYTSRLHSGVPSRFSGSGSGTDYSLTISNLEQEDIATYFCRQGNTLPWTFGGGTKLEIKR
2. 15C04 mouse/human chimeric IgG4 (S228P) kappa (antibody, V domains shown) VH: QIQLQESGPSLVRPSQTLSLTCSVTGDSITSGYWNWIRKFPGDKLEYLGYISYSGFTYYNPSLKSRISITRDTSKNQYYLQLNSVTTEDTATYYCASSYYGSSLGFPYWGQGTLVTVSA VL: DVVMTQTPLSLPVSLGDQASISCRSSQSLVHSNGNTYLHWYLQKPGQSPKLLIYKVSNRFSGVPDRFSGSGSGTDFTLKISRVEAEDLGVYFCSQSTHVPWTFGGGTKLEIKR
3. 14C05 mouse/human chimeric IgG4 (S228P) kappa (antibody, V domains shown) VH: EVMLVESGPELKKPGETVKISCKASGYTFTNYGMNWVKQAPGKGLKWMGSINTYTGEATYADDFKGRFAFSLETSANTAYLQIDNLKNEDTATYFCARGDYYGRGTWFAYWGQGTLVTVSA VL: ETTVTQSHKFMSTSVGDRVSITCKASQDVSTAVAWYQQKPGQSPKLLIYSASYRYPGVPDRFTGSGSGTDFTFTISSVQAEDLAVYYCQQDYSSPWTFGGGTKLEIKR
4. 13H11 mouse/human chimeric IgG4 (S228P) kappa (antibody, V domains shown) VH: QIQLVQSGPELKKPGETVKISCKASGYTFENFGMNWVKQAPGKGLKWMGWINTYTGEATYADDFKGRFAFSLETSASTAYLQINNLKNEDTATYFCARDGGFRHFDVWGAGTTVTVSS VL: ETTVTQSPASLSVATGEKVTIRCITSTDIDDDMNWYQQKPGEPPKLLISEGNTLRPGVPSRFSSSGYGTDFVFTIENMLSEDVADYYCLQSDNLPLTFGAGTKLELKR

-- reply
0.74
0.68
0.66
0.09

-- ask What value of normalized maximum binding nm shift has been recorded for this entry: 12A08 mouse/human chimeric IgG4 (S228P) kappa (antibody, V domains shown) VH: EVMLVESGGGLVKPGGSLKLSCAASGFTFDDFYMYWVRQTPEKRLEWVASISDGGTYTYYPDSVKGRFTISRDNAKNTLYLQLSSLKSEDTAMYYCARGVDKYYYAMDYWGQGTSVTVSS VL: QILLTQSPAIMSASPGEKVTITCSASSSVSYMHWFQQKPGTSPKLWIYSTSNLASGVPARFSGSGSGTSYSLTISRMEAEDAATYYCQQRSSYPLTFGAGTKLELKR
-- reply 0.69
